molecular target: GSK3-alpha (Homo sapiens, UniProt P49840); construct: purchased Upstate 14-492; test: GSK3-alpha Kinase-Glo Plus luminescent kinase assay; format: biochemical; details: 10 μM compound, n=3, read-out: % Inhibition at 10 μM α
Sequence (P49840 whole entry): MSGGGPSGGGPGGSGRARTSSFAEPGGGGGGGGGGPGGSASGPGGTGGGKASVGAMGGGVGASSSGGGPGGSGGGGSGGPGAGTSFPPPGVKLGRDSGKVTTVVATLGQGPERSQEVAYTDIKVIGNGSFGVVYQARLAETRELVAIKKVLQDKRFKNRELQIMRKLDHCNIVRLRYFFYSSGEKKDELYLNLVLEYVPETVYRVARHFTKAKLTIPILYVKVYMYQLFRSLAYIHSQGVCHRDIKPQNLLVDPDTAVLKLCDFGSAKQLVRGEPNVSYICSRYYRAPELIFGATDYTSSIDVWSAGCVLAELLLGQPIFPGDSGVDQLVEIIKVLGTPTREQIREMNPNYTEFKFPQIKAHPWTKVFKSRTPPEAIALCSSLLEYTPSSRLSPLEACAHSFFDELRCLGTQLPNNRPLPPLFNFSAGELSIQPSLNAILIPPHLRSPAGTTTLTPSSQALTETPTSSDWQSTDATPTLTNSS
Quantity Measured: inhibition at 10 µM (%)

Molecule | inhibition at 10 µM (%)
O=c1[nH]c(=O)n(Cc2ccccc2)cc1-c1cccs1 [Compound 6] | 10
O=c1[nH]cc(-c2ccco2)c(=O)n1Cc1ccc([N+](=O)[O-])cc1 [Compound 12] | 55
CCOC(=O)Cn1c(=O)[nH]cc(-c2ccco2)c1=O [Compound 13] | 13
N#Cc1ccc(Cn2cc(-c3ccco3)c(=O)[nH]c2=O)cc1 [Compound 5] | 17
CCOC(=O)Cn1cc(-c2cccs2)c(=O)[nH]c1=O [Compound 2] | 68

(I) O=c1[nH]c(=O)n(Cc2ccc(F)cc2)cc1-c1ccco1 [Compound 4]
(II) CCOC(=O)Cn1cc(-c2ccco2)c(=O)[nH]c1=O [Compound 1]
Name the one with the greater inhibition at 10 µM value, either I or II as given. # reply format: chosen label
I
(I: 72%, II: 9%)
